Molecular target: CFTR (Homo sapiens)
Assay: Membrane Potential Dye, Enteroid Assay B
Type: cell-based
reported property: Ent. B Max Activity (%)

// Ent. B Max Activity (%) lookup, key: Cc1cccc(C)c1-c1cc2nc(n1)NS(=O)(=O)c1cccc(c1)C(=O)N(C1CN(C3CC4(CC4)C3)C1)[C@H](CC(C)C)CO2
+++ (+++ is >60%)

# query: Ent. B Max Activity (%) of entry CC(=O)N1CCC2(CC1)CC(N1C(=O)c3cccc(c3)S(=O)(=O)Nc3nc(cc(-c4c(C)cccc4C)n3)OC[C@H]1CC(C)C)C2
+++ (+++ is >60%)

Given the entry COCCN(C)C(=O)C1CC(N2C(=O)c3cccc(c3)S(=O)(=O)Nc3nc(cc(-c4c(C)cccc4C)n3)OC[C@H]2CC(C)C)C1 (stereo partly drawn) , report its measured Ent. B Max Activity (%).
+++ (+++ is >60%)

----------
# Lookup of reported pEC50 keyed by entry
Molecular target: CFTR (Homo sapiens, UniProt P13569)
Sequence (P13569 with tags, fused parts or gaps DEL508-508): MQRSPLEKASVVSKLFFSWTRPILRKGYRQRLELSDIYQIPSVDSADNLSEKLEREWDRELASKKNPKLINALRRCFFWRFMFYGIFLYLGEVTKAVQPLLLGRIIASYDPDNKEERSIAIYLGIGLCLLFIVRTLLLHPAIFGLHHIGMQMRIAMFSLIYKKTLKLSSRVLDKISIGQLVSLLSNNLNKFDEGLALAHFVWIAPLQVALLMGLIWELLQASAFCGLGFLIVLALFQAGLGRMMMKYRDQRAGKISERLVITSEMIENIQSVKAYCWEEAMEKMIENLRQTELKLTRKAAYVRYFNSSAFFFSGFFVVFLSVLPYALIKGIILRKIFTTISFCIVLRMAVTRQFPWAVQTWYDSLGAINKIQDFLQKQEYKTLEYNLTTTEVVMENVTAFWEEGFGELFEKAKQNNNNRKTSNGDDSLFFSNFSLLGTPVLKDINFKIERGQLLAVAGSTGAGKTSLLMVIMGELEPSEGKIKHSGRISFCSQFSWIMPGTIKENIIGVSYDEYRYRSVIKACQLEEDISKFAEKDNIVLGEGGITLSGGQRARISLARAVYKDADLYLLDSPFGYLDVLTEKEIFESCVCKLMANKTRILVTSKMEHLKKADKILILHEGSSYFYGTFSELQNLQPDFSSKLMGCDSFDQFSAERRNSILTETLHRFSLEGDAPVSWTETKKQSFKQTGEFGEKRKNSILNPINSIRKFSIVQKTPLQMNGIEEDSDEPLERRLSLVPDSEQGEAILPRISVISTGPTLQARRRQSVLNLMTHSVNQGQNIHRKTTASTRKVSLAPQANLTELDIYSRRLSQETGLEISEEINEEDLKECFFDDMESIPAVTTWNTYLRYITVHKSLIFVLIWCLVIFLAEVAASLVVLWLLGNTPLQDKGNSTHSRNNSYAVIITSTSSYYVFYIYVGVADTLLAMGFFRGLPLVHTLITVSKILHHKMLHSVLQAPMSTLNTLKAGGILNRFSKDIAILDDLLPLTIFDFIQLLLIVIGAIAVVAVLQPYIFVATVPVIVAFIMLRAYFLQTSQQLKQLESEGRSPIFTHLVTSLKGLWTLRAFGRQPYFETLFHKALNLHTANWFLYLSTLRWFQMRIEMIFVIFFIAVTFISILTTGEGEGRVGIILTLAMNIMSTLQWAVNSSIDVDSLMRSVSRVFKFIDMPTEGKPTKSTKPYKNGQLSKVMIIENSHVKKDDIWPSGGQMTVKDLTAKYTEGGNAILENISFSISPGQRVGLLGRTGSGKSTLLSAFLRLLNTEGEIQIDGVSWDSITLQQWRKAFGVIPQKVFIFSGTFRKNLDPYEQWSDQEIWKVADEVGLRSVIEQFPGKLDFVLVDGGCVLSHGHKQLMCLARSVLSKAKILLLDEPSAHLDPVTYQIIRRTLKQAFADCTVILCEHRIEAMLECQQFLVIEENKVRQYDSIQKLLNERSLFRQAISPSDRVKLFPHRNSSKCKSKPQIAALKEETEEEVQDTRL
Test: Membrane Potential Dye, Enteroid Assay B
Type: cell-based
Conditions: read-out: Ent. B EC50
pEC50: −log10 of the molar value.

Given COC1CC(N2C(=O)c3cccc(c3)S(=O)(=O)Nc3nc(cc(-c4c(C)cccc4C)n3)OC[C@H]2CC2(C(F)(F)F)CC2)C1 (stereo in doubt) [Compound 466] , state its recorded pEC50.
> 6.00

Name the reported pEC50 value associated with the compound Cc1cccc(C)c1-c1cc2nc(n1)NS(=O)(=O)c1cccc(c1)C(=O)N(C1CC3(CCN(CCOC(C)C)CC3)C1)[C@H](CC1(C(F)(F)F)CC1)CO2 [Compound 129]
> 6.00

Others:
What value of pEC50 has been reported for the following compound? Cc1cccc(C)c1-c1cc2nc(n1)NS(=O)(=O)c1cccc(c1)C(=O)N([C@H]1CC3(C[C@H](N(C)C)C3)C1)[C@H](CC(C)C)CO2 (stereo partly drawn) [Compound 313]
> 6.00

----------
Molecular target: UniProtKB P13569
Experiment: Membrane Potential Dye, Enteroid Assay B
Type: cell-based
Conditions: Table 10
Method: Base medium (ADF+++) consisted of Advanced […], 2 mM Glutamax, 10 mM HEPES, 1 μg/mL penicillin/streptomycin. […] Enteroid cells were incubated with test compound in IEMM for 18-24 hours at 37° C., 95% humidity and 5% CO2. […] Chloride transport was initiated by addition of Chloride Free Dye Stimulation Solution and the fluorescence signal was read for 15 min. […]
reported property: Ent. B Max Activity (%)

Examples from the recorded data:
Give its Ent. B Max Activity (%) value. Item: Cc1cccc(C)c1-c1cc2nc(n1)NS(=O)(=O)c1cccc(c1)C(=O)N(c1cn(C)nc1C)[C@H](CC(C)(C)C)CO2
+++ (+++ is >60%)

Consider the molecule shown here: Cc1cccc(C)c1-c1cc2nc(n1)NS(=O)(=O)c1cccc(c1)C(=O)N(C1CC3(CC3)C1)[C@H](CC(C)(C)O)CO2 What is its recorded Ent. B Max Activity (%)?
+++ (+++ is >60%)

Give its Ent. B Max Activity (%) value. Item: Cc1cccc(C)c1-c1cc2nc(n1)NS(=O)(=O)c1cccc(c1)C(=O)N([C@H]1C[C@@H](N3CCOC3=O)C1)[C@H](CC(C)(C)C)CO2 (stereo in doubt) [Compound 251]
+++ (+++ is >60%)

Using the record for Cc1cccc(C)c1-c1cc2nc(n1)NS(=O)(=O)c1cccc(n1)C(=O)N([C@H]1C[C@@H](C(C)(C)O)C1)[C@H](CC(C)(C)C)CO2 (stereo in doubt) [Compound 411] , report its Ent. B Max Activity (%).
+++ (+++ is >60%)

Can you share its Ent. B Max Activity (%)? I mean this molecule: Cc1cccc(C)c1-c1cc2nc(n1)NS(=O)(=O)c1cccc(c1)C(=O)N(C1CC3(CC(=O)C3)C1)[C@H](CC(C)(C)C)CO2
+++ (+++ is >60%)

Further cases:
Look up Ent. B Max Activity (%) for this molecule: Cc1cccc(C)c1-c1cc2nc(n1)NS(=O)(=O)c1cccc(c1)C(=O)N(C1CC3(COC(=O)N3C)C1)[C@H](CC(C)(C)C)CO2 (single isomer, unassigned) [Compound 174]
++ (++ is 30-60%)

Consider the molecule COCCN1CCC(n2cc(N3C(=O)c4cccc(c4)S(=O)(=O)Nc4nc(cc(-c5c(C)cccc5C)n4)OC[C@H]3CC(C)(C)C)cn2)CC1 and give its measured Ent. B Max Activity (%).
+ (+ is <300%)

# query: Ent. B Max Activity (%) of entry CCC(=O)N[C@H]1C[C@]2(C1)C[C@H](N1C(=O)c3cccc(c3)S(=O)(=O)Nc3nc(cc(-c4c(C)cccc4C)n3)OC[C@H]1CC1(C(F)(F)F)CC1)C2 (stereo partly drawn)
+++ (+++ is >60%)

Any idea what Ent. B Max Activity (%) was measured for COC(=O)N(C)C1CC(N2C(=O)c3cccc(c3)S(=O)(=O)Nc3nc(cc(-c4c(C)cccc4C)n3)OC[C@H]2CC(C)(C)C)C1 (single isomer, unassigned) [Compound 169] ?
+++ (+++ is >60%)

# Ent. B Max Activity (%) lookup, item COC(=O)N(C)C1CC(N2C(=O)c3cccc(c3)S(=O)(=O)Nc3nc(cc(-c4c(C)cccc4C)n3)OC[C@H]2CC(C)(C)C)C1 (single isomer, unassigned) [Compound 170]
++ (++ is 30-60%)

Record request: Ent. B Max Activity (%) value, item Cc1cccc(C)c1-c1cc2nc(n1)NS(=O)(=O)c1cccc(c1)C(=O)N(C1CC3(C1)CC(CO)(CO)C3)[C@H](CC(C)(C)C)CO2
+++ (+++ is >60%)

// Ent. B Max Activity (%) lookup, key: [H][C@]1(N2C(=O)c3cccc(c3)S(=O)(=O)Nc3nc(cc(-c4c(C)cccc4C)n3)OC[C@H]2CC(C)(C)C)C[C@@]2(C[C@H](NC(=O)OC3CC3)C2)C1 (stereo in doubt)
+++ (+++ is >60%)

Any idea what its Ent. B Max Activity (%) is? The molecule is Cc1cccc(C)c1-c1cc2nc(n1)NS(=O)(=O)c1cccc(c1)C(=O)N([C@H]1C[C@]3(C[C@H](NC(=O)C(C)C)C3)C1)[C@H](CC1(C(F)(F)F)CC1)CO2 (stereo partly drawn)
+++ (+++ is >60%)

What value of Ent. B Max Activity (%) has been recorded for this entry: Cc1cccc(C)c1-c1cc2nc(n1)NS(=O)(=O)c1cccc(c1)C(=O)N(C1CC(NC(=O)OC(C)C)C1)[C@H](CC(C)(C)C(F)(F)F)CO2 (single isomer, unassigned) [Compound 192]
+++ (+++ is >60%)

Please give the measured Ent. B Max Activity (%) for this molecule: Cc1cccc(C)c1-c1cc2nc(n1)NS(=O)(=O)c1cccc(c1)C(=O)N(C1CC(CO)(CO)C1)[C@H](CC(C)(C)C)CO2
+++ (+++ is >60%)

Item under review: Cc1cccc(C)c1-c1cc2nc(n1)NS(=O)(=O)c1cccc(c1)C(=O)N(C1CC3(C1)CC(C)(O)C3)[C@H](CC(C)(C)C)CO2 (single isomer, unassigned) [Compound 119] . Reported Ent. B Max Activity (%)?
+++ (+++ is >60%)

Which Ent. B Max Activity (%) is reported for this molecule? COC(=O)N1CCC(n2cc(N3C(=O)c4cccc(c4)S(=O)(=O)Nc4nc(cc(-c5c(C)cccc5C)n4)OC[C@H]3CC(C)(C)C)cn2)CC1
+ (+ is <300%)

Which value of Ent. B Max Activity (%) has been reported for Cc1cccc(C)c1-c1cc2nc(n1)NS(=O)(=O)c1cccc(c1)C(=O)N(C1CS(=O)(=O)C1)[C@H](CC(C)(C)C)CO2 in the records?
+++ (+++ is >60%)

Given Cc1cccc(C)c1-c1cc2nc(n1)NS(=O)(=O)c1cccc(c1)C(=O)N(C1CC3(CC(O)C3)C1)[C@H](CC(C)(C)C)CO2 (single isomer, unassigned) [Compound 121] , state its recorded Ent. B Max Activity (%).
+++ (+++ is >60%)

State the recorded Ent. B Max Activity (%) for this entry: Cc1cccc(C)c1-c1cc2nc(n1)NS(=O)(=O)c1cccc(c1)C(=O)N([C@H]1C[C@@](C)(OC(F)(F)F)C1)[C@H](CC(C)(C)C)CO2 (single isomer, unassigned)
++ (++ is 30-60%)

Could you tell me which Ent. B Max Activity (%) is on file for COC(=O)NC1CC2(C1)CC(N1C(=O)c3cccc(c3)S(=O)(=O)Nc3nc(cc(-c4c(C)cccc4C)n3)O[C@@H](C)[C@H]1C)C2 (stereo partly drawn) ?
++ (++ is 30-60%)
